Let's look at some molecules and their measured Microsomal Cli.
Type: in vitro ADME, mouse
experimental-context: CD1, mouse
Answer in mL/min/g, number only, no unit symbol.

Look over these answered cases.
Fc1c(F)c(F)c(-c2nc3c(N4CCOCC4)ncnc3s2)c(F)c1F
43
COC(=O)c1cnccc1NC(=O)c1c(F)c(F)c(F)c(F)c1F
20
CCOC(=O)c1nc(C)oc1NS(=O)(=O)c1c(F)c(F)c(F)c(F)c1F
0.9

Lookup: Look up Microsomal Cli: "CCOC(=O)c1nc(-c2ccccc2)oc1NC(=O)c1c(F)c(F)c(F)c(F)c1F"
Found: 6.9

Lookup: Look up Microsomal Cli: "Oc1ncnc2oc(-c3c(F)c(F)c(F)c(F)c3F)nc12"
Found: 2.8

Lookup: Look up Microsomal Cli: "COC(=O)c1cccnc1NC(=O)c1c(F)c(F)c(F)c(F)c1F"
Found: 47

Values from paper PMC11915372
